Values compiled from paper PMC10397247.

# testSystem: T1, 4H2667-bN
# T1 chain: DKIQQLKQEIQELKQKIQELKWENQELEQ
# assaySummary: two-hybrid library CCNG1;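 further: natural log of median RNA to DNA barcode read ratio; higher means stronger binding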
Hi all, reminder that labels come from interaction score, split as 1: < -1; 2: ≥ -1 and < 0.9; 3: ≥ 0.9

Inquiry: Which band does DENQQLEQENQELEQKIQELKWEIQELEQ [4H1193-bN] fall in?
Reply text: 1

Inquiry: Which band does DKIQQLKQEIQELEQKNQELKWEIQELKQ [4H2618-bN] fall in?
Reply text: 2

Inquiry: Which band does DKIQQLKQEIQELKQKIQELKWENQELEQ [4H2667-bN] fall in?
Reply text: 2

Inquiry: Which band does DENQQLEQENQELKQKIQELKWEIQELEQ [4H1257-bN] fall in?
Reply text: 1

Inquiry: Which band does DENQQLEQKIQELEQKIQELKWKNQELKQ [4H1328-bN] fall in?
Reply text: 3

Inquiry: Which band does DENAQLKQEIAELKQENAELKWKIAQLEQ [4H1629-bA] fall in?
Reply text: 1

Inquiry: Which band does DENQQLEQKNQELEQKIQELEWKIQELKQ [4H1446-bN] fall in?
Reply text: 2

Inquiry: Which band does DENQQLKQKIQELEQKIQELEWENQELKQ [4H1828-bN] fall in?
Reply text: 3

Inquiry: Which band does DKIQQLKQEIQELEQKNQELEWEIQELKQ [4H2610-bN] fall in?
Reply text: 2
